Test: total protein half-life in vivo (active degradation + dilution); higher = more stable protein
Conditions: wild type E. coli NCM3722; growth: N-lim chemostat; doubling time 12 h
Metric Name: total protein half-life in vivo
Answers without a unit are incomplete; give the number and then its unit.

| Sequence Code | total protein half-life in vivo |
| --- | --- |
| METRREERIGQLLQELKRSDKLHLKDAAALLGVSEMTIRRDLNNHSAPVVLLGGYIVLEPRSASHYLLSDQKSRLVEEKRRAAKLAATLVEPDQTLFFDCGTTTPWIIEAIDNEIPFTAVCYSLNTFLALKEKPHCRAFLCGGEFHASNAIFKPIDFQQTLNNFCPDIAFYSAAGVHVSKGATCFNLEELPVKHWAMSMAQKHVLVVDHSKFGKVRPARMGDLKRFDIVVSDCCPEDEYVKYAQTQRIKLMY [P0ACK5] | 10.6 h |
| MGLPPLSKIPLILRPQAWLHRRHYGEVLSPIRWWGRIPFIFYLVSMFVGWLERKRSPLDPVVRSLVSARIAQMCLCEFCVDITSMKVAERTGSSDKLLAVADWRQSPLFSDEERLALEYAEAASVTPPTVDDALRTRLAAHFDAQALTELTALIGLQNLSARFNSAMDIPAQGLCRIPEKRS | 11.3 h |

Now let's try a different one.
Ask | Item under review: `MALLEICCYSMECALTAQQNGADRVELCAAPKEGGLTPSLGVLKSVRQRVTIPVHPIIRPRGGDFCYSDGEFAAILEDVRTVRELGFPGLVTGVLDVDGNVDMPRMEKIMAAAGPLAVTFHRAFDMCANPLYTLNNLAELGIARVLTSGQKSDALQGLSKIMELIAHRDAPIIMAGAGVRAENLHHFLDAGVLEVHSSAGAWQASPMRYRNQGLSMSSDEHADEYSRYIVDGAAVAEMKGIIERHQAK` . Reported total protein half-life in vivo?
Reply | 6.84 h
